The measured values listed here are drawn from patent US20150104459A1.

Target: recombinant soluble homotrimeric HA of A/Japan/305/57 (H2N2) (Influenza A virus A/Japan/305/1957 (H2N2))
Test: HA microarray, BCC supernatant
Conditions: remark: other sources report otherwise
property-name: Trimeric HA Binding RLU (RLU)
Response body: numeric value in RLU, unit text excluded.

Example binders with recorded Trimeric HA Binding RLU:
TCN-545 (5082_I15) (antibody, V domains shown) VH: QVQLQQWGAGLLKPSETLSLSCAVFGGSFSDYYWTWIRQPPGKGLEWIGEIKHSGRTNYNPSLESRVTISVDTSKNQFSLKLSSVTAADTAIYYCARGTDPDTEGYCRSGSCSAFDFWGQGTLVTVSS VL: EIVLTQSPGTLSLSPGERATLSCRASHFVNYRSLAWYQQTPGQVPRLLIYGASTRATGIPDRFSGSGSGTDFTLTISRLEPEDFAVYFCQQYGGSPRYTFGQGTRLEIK | 157
TCN-538 (3206_O17) (antibody, V domains shown) VH: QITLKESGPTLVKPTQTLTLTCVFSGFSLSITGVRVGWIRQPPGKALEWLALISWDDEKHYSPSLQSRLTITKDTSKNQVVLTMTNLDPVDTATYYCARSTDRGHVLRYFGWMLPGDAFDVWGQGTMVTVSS VL: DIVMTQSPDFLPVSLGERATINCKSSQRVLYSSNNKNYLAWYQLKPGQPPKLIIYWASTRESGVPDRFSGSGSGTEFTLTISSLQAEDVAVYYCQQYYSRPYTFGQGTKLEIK | 43000

Which Trimeric HA Binding RLU reading was recorded for the binder TCN-529 (5297_H01) (antibody, V domains shown) VH: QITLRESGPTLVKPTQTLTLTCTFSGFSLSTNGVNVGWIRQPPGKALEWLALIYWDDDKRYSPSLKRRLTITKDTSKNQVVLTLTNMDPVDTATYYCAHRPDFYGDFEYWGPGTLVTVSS VL: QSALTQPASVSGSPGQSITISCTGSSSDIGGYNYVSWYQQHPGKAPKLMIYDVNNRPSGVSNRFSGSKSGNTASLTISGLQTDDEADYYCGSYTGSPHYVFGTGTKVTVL ?
435
